- measurement.target: interferon-gamma (IFNγ) (human)
- Sequence: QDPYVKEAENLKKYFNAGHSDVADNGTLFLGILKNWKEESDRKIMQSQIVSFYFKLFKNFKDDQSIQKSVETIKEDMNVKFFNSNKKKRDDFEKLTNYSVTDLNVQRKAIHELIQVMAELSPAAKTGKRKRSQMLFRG
- assay.explanation: SPR
- measurement.context: N = unnatural base Ds at positions 28, 39; SPR (BIAcore T200, biotinylated aptamer on SA chip), 1x PBS (1 mM KH2PO4, 3 mM Na2HPO4) with 205 mM NaCl final, 0.05% NP-40, pH 7.4, 25 °C; IFNγ 1.25-50 nM
endpoint.name: Kd (nM)
Write the number in nM without appending the unit.

Field Kd (entry CCCGCCCGGGTCCGCGAAGCGGTAGGTNTGGGCTAGGCNGCTGGCGGGCGCGAAGCG [aptamer 57mhGC] ) reads 0.033

From: paper PMC4686876
